target of assay: Human M4 (Homo sapiens, UniProt P08173)
protocol description: mAChR M4 cell-based functional assay (calcium flux, antagonist mode vs EC80 acetylcholine), human M4/Gqi5/CHO-K1 cells
applied conditions: decrease of response elicited by EC80 acetylcholine; human M4/Gqi5 CHO-K1 cells
Protocol: Human or rat M4 cDNA, along with the chimeric G protein Gqi5, were transfected into Chinese hamster ovary (CHO-K1) cells purchased from the American Type Culture Collection using Lipofectamine2000. […] Calcium flux was measured using the Functional Drug Screening System (FDSS) 6000 or 7000 (Hamamatsu Corporation, Tokyo, Japan) as an increase in the fluorescent static ratio. […] Agonist activity was analyzed as a concentration-dependent increase in calcium mobilization upon compound addition. […]
measured property: IC50 (nM)

Use the examples below as a reference point.
Could you share which IC50 value was measured for CC1(C)CC(N2C[C@H]3C[C@H](Nc4ccc(-c5cc(F)ccc5Cl)nn4)C[C@H]3C2)CCO1 (stereo partly drawn) [compound 16] ?
1.9

Next up: [O-][S+](c1ccccc1)c1ccc(N[C@H]2C[C@@H]3CN(Cc4ccc5c(c4)OCO5)C[C@@H]3C2)nn1 (stereo partly drawn) [compound 30]
7.8

Again, but for CC1(C)CC(N2C[C@H]3C[C@H](Nc4ccc(S(=O)(=O)C5CCCCC5)nn4)C[C@H]3C2)CCO1 (stereo partly drawn) [compound 36]
51.5

Could you do the same for O=S(=O)(c1ccccc1)c1ccc(N[C@H]2C[C@@H]3CN(Cc4ccccn4)C[C@@H]3C2)nn1 [compound 25] , please?
436

[1] O=S(=O)(c1ccc(N[C@H]2C[C@@H]3CN(Cc4ccc5cc[nH]c5c4)C[C@@H]3C2)nn1)C1CCCCC1 [compound 48]
[2] Cc1cc(Br)cnc1CN1C[C@H]2C[C@H](Nc3ccc(S(=O)(=O)C4CCCCC4)nn3)C[C@H]2C1 [compound 45]
Which gives the smaller IC50 number: 1 or 2 ? Could you answer with the label of the item you picked?
2

---

target of assay: Human M4 (Homo sapiens)
Construct: expressed in transfected cells; host or cells: CHO-K1 (ATCC), stably co-expressing chimeric G protein Gqi5
Sequence (P08173 1-479): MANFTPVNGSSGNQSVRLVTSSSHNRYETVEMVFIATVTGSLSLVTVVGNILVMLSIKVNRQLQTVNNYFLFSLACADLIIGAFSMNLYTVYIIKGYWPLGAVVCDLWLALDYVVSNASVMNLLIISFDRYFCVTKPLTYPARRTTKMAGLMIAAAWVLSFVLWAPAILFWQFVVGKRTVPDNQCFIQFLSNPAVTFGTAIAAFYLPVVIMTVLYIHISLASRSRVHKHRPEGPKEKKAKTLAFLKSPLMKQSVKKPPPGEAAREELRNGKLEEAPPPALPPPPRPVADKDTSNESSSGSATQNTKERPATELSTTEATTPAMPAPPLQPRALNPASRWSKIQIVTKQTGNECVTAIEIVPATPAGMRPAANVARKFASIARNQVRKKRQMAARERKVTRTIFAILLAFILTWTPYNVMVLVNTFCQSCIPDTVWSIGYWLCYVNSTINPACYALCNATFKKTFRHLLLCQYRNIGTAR
protocol description: mAChR M4 cell-based functional assay (calcium flux, antagonist mode vs EC80 acetylcholine), human M4/Gqi5/CHO-K1 cells
applied conditions: CHO-K1; % ACh maximum at 30 μM; human M4; read-out: Human M4 Emin (%)
measured property: remaining activity at 30 µM (%)

For the molecule O=C(c1ccc(N[C@H]2C[C@@H]3CN(CC4CCOCC4)C[C@@H]3C2)nn1)N1CCOCC1 , what remaining activity at 30 µM is on record?
21

For Cc1cc(Br)cnc1CN1C[C@H]2C[C@H](Nc3ccc(S(=O)(=O)C4CCCCC4)nn3)C[C@H]2C1 then?
4

[P] Fc1ccc(Cl)c(-c2ccc(N[C@H]3C[C@@H]4CN(C5COC5)C[C@@H]4C3)nn2)c1
[Q] O=C(Nc1ccccc1F)c1ccc(N[C@H]2C[C@@H]3CN(CC4CCOCC4)C[C@@H]3C2)nn1
Hey, between P and Q which has a smaller measured remaining activity at 30 µM? Please identify the chosen entry by its label.
Q

---

target of assay: Human M4 (Homo sapiens, UniProt P08173)
Sequence (P08173 1-479): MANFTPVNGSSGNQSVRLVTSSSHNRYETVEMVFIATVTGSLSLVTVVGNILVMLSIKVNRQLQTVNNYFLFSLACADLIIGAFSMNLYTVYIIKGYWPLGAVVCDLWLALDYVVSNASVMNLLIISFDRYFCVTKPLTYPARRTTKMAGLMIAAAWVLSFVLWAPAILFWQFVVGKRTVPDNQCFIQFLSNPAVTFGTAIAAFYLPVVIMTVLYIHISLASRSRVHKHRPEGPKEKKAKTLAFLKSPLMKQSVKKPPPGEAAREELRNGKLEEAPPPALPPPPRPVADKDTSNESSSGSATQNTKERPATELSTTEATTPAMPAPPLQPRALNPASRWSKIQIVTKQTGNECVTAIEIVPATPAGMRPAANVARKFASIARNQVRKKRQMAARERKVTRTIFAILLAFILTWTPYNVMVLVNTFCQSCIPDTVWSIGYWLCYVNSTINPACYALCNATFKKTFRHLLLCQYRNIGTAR
protocol description: mAChR M4 cell-based functional assay (calcium flux, antagonist mode vs EC80 acetylcholine), human M4/Gqi5/CHO-K1 cells
applied conditions: decrease of response elicited by EC80 acetylcholine; human M4/Gqi5 CHO-K1 cells
measured property: IC50 (nM)

The cases that follow already have their IC50 on record.
Which measured IC50 belongs to O=C(NC1CC1)c1ccc(N[C@H]2C[C@@H]3CN(CC4CCOCC4)C[C@@H]3C2)nn1 [compound 3] , tested on Human M4 (Homo sapiens, UniProt P08173)?
417

Cool, now Cc1cc(CN2C[C@H]3C[C@H](Nc4ccc(S(=O)(=O)C5CCCCC5)nn4)C[C@H]3C2)ccc1F [compound 38]
188

Next entry: O=C(Nc1ccccc1)c1ccc(N[C@H]2C[C@@H]3CN(CC4CCOCC4)C[C@@H]3C2)nn1 [compound 7]
572

Follow-up item: Fc1ccc(Cl)c(-c2ccc(N[C@H]3C[C@@H]4CN(C5CC6(COC6)C5)C[C@@H]4C3)nn2)c1 [compound 69]
11.8

Then this compound: CC1(C)CC(N2C[C@H]3C[C@H](Nc4ccc(N5CCC(F)(F)CC5)nn4)C[C@H]3C2)CCO1 (some centres unmarked) [compound 58]
29.8

[P] CC1(C)C(=O)N(C2CC2)c2nnc(N[C@H]3C[C@@H]4CN(CC5CCOCC5)C[C@@H]4C3)cc21 [compound 70]
[Q] O=S(=O)(c1ccc(N[C@H]2C[C@@H]3CN(Cc4ccc5[nH]ccc5c4)C[C@@H]3C2)nn1)C1CCCCC1 [compound 47]
Field: lower IC50 | Options: P / Q Returns: label corresponding to the selected item.
P
(P: 12.8 nM, Q: 116 nM)

[P] O=S(=O)(c1ccccc1)c1ccc(N[C@H]2C[C@@H]3CN(Cc4ncccc4C(F)(F)F)C[C@@H]3C2)nn1 [compound 41]
[Q] Fc1ccc(Cl)c(-c2ccc(N[C@H]3C[C@@H]4CN(C5(C6CCOCC6)CC5)C[C@@H]4C3)nn2)c1 [compound 64]
# returns the entry with the larger IC50; inputs P and Q Let me know the label of the one you choose.
P
(P: 742 nM, Q: 161 nM)

[I] CC1(C)CC(N2C[C@H]3C[C@H](Nc4ccc(-c5cc(F)ccc5F)nn4)C[C@H]3C2)CCO1 (some centres unmarked) [compound 55]
[II] CC1(C)CC(N2C[C@H]3C[C@H](Nc4ccc(N5CCOCC5)nn4)C[C@H]3C2)CCO1 (some centres unmarked) [compound 60]
Decide: I or II , by lowest recorded IC50. Write the label of whichever entry you select.
I

---

target of assay: Rat M4 (Rattus norvegicus)
Construct: expressed in transfected cells; host or cells: CHO-K1 (ATCC), stably co-expressing chimeric G protein Gqi5
Sequence (P08485 whole entry): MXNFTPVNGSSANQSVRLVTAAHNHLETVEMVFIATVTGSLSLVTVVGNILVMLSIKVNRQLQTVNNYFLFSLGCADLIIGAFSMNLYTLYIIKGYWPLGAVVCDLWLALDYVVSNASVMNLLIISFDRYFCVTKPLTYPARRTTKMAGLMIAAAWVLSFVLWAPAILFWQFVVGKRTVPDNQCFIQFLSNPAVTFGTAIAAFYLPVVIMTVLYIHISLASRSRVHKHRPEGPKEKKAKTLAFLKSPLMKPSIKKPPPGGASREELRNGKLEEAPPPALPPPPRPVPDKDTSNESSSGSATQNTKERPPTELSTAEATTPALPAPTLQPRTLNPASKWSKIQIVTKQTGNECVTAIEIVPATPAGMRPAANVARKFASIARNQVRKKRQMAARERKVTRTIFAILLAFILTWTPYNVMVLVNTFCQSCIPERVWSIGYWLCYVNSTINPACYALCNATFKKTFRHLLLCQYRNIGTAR
protocol description: mAChR M4 cell-based functional assay (calcium flux, antagonist mode vs EC80 acetylcholine), rat M4/Gqi5/CHO-K1 cells
applied conditions: CHO-K1; % ACh maximum at 30 μM; rat M4; read-out: Rat M4 Emin (%)
Method: Human or rat M4 cDNA, along with the chimeric G protein Gqi5, were transfected into Chinese hamster ovary (CHO-K1) cells purchased from the American Type Culture Collection using Lipofectamine2000. […] Calcium flux was measured using the Functional Drug Screening System (FDSS) 6000 or 7000 (Hamamatsu Corporation, Tokyo, Japan) as an increase in the fluorescent static ratio. […] Agonist activity was analyzed as a concentration-dependent increase in calcium mobilization upon compound addition. […]
measured property: remaining activity at 30 µM (%)

[P] O=C(c1ccc(N[C@H]2C[C@@H]3CN(CC4CCOCC4)C[C@@H]3C2)nn1)N1CCCCC1
[Q] CC(C)(O)CN1C[C@H]2C[C@H](Nc3ccc(-c4cc(F)ccc4Cl)nn3)C[C@H]2C1
Of P and Q , whose reported remaining activity at 30 µM is numerically smaller? Answer format: the label of the selected item.
Q
(Q: 8%, P: 14%)

[A] CC1(C)CC(N2C[C@H]3C[C@H](Nc4ccc(N5CCC(F)(F)CC5)nn4)C[C@H]3C2)CCO1 (stereo partly shown)
[B] CC(C)(C)CCN1C[C@H]2C[C@H](Nc3ccc(S(=O)(=O)C4CCCCC4)nn3)C[C@H]2C1
Select one. Lower remaining activity at 30 µM: A or B Your answer should be the label attached to the chosen record.
B
(B: 4%, A: 6%)
